# target-or-system: Histone deacetylase 2 (Homo sapiens)
# Sequence (Q92769 whole entry): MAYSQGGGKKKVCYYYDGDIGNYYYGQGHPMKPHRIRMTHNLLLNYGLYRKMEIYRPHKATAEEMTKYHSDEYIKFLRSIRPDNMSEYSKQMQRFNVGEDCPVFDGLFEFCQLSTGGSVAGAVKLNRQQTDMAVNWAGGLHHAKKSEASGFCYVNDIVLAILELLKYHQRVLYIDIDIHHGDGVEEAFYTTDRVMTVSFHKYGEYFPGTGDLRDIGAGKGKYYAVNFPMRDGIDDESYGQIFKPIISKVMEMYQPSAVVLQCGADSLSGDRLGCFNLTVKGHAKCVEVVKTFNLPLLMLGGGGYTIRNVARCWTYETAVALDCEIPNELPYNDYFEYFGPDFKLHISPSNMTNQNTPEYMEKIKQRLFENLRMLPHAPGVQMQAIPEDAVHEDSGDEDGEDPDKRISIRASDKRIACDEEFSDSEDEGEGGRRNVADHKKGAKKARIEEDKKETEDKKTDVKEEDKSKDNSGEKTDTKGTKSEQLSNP
# method-notes: Inhibition of N-terminal GST-tagged full length human HDAC2 expressed in baculovirus system using FTS as substrate preincubated for 10 mins followed by substrate addition and measured after 2 hrs by fluorescence based analysis
assay-endpoint: pIC50
Answers are plain numbers, as −log10 of the molar value.

Look up pIC50 for this compound: O=C(CCCCCCC(=O)N/N=C/c1ccc(N(c2ccccc2)c2ccccc2)cc1)NO
7.81

* * *

# target-or-system: Histone deacetylase 3 (Homo sapiens, UniProt O15379)
# Sequence (O15379 whole entry): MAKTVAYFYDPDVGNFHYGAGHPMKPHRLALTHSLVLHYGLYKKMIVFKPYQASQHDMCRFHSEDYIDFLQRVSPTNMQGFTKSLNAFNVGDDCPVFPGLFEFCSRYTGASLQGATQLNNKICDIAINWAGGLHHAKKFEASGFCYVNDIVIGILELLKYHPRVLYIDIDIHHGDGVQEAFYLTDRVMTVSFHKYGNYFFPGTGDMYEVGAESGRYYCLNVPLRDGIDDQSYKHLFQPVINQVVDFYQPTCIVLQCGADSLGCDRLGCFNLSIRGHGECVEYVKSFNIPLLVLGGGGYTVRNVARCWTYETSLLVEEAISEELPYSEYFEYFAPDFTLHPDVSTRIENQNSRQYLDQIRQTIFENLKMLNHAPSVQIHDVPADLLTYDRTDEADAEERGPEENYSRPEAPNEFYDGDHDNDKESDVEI
# method-notes: Inhibition of recombinant full length human HDAC3 expressed in insect Sf9 cells
assay-endpoint: IC50 (nM)
Give bare numbers, in nM.

Look up IC50 for this compound: CC(C)[C@H](N)C(=O)SCC/C=C/[C@@H]1CC(=O)NCc2nc(cs2)C(=O)NC(C)(C)C(=O)N[C@@H](C(C)C)C(=O)O1 [BOCODEPSIN BESYLATE]
2

* * *

# target-or-system: Histone deacetylase 2 (Homo sapiens)
# method-notes: Inhibition of human full length recombinant HDAC2 expressed in baculovirus infected Sf9 cells using RHKKAc as substrate preincubated for 10 mins followed by substrate addition and measured after 2 hrs by fluorescence based analysis
assay-endpoint: IC50 (nM)
Numbers only, in nM.

Look up IC50 for this molecule: CC(C)[C@H](N)C(=O)SCC/C=C/[C@@H]1CC(=O)NCc2nc(cs2)C(=O)NC(C)(C)C(=O)N[C@@H](C(C)C)C(=O)O1 [BOCODEPSIN BESYLATE]
2.4
